# Test system: 126254-015-R-J1-PDC complex spheroid growth, % test/control
# assayOverview: Anticancer human tumor 126254-015-R-J1-PDC patient-derived soft tissue sarcoma cell line growth inhibition [Asc]
# conditionsUsed: second compound 0.1 µM; first compound 10 µM; hits give low values
valueKind: viability, T/C (%)
Numbers only; they are read as %.

Ask: State the recorded viability, T/C for this entry: C#Cc1c(F)ccc2cc(O)cc(-c3ncc4c(N5CC6CCC(C5)N6)nc(OCC56CCCN5CC(F)C6)nc4c3F)c12 (stereo not given) + CNC(C)C(=O)NC1CN(S(=O)(=O)c2cccc(S(=O)(=O)N3CCC4CCC(C(=O)NC(c5ccccc5)c5ccccc5)N4C(=O)C(NC(=O)C(C)NC)C3)c2)CCC2CCC(C(=O)NC(c3ccccc3)c3ccccc3)N2C1=O
Reply: 40.5

Ask: Consider the compound C=CC(=O)N1CCN(c2nc(=O)n(-c3c(C)ccnc3C(C)C)c3nc(-c4c(O)cccc4F)c(F)cc23)C(C)C1 (stereo not given) + Cc1c(S(C)(=O)=O)c(-c2cc(F)cc(N3CCN(c4ccc(NS(=O)(=O)c5ccc(NC(CCN6CCC(C(=O)OCCCP(=O)(O)O)CC6)CSc6ccccc6)c(S(=O)(=O)C(F)(F)F)c5)cc4)CC3)c2)c(-c2ccc(Cl)cc2)n1C(C)C and give its measured viability, T/C.
Reply: 76.3

Ask: Would you mind telling me what viability, T/C value was observed for C#Cc1c(F)ccc2cc(O)cc(-c3ncc4c(N5CC6CCC(C5)N6)nc(OCC56CCCN5CC(F)C6)nc4c3F)c12 (stereo not given) + Cc1c(S(C)(=O)=O)c(-c2cc(F)cc(N3CCN(c4ccc(NS(=O)(=O)c5ccc(NC(CCN6CCC(C(=O)OCCCP(=O)(O)O)CC6)CSc6ccccc6)c(S(=O)(=O)C(F)(F)F)c5)cc4)CC3)c2)c(-c2ccc(Cl)cc2)n1C(C)C ?
Reply: 59.9

Ask: Need viability, T/C, item C=CC(=O)N1CCN(c2nc(=O)n(-c3c(C)ccnc3C(C)C)c3nc(-c4c(O)cccc4F)c(F)cc23)C(C)C1 (stereo not given) + CNC(C)C(=O)NC1CN(S(=O)(=O)c2cccc(S(=O)(=O)N3CCC4CCC(C(=O)NC(c5ccccc5)c5ccccc5)N4C(=O)C(NC(=O)C(C)NC)C3)c2)CCC2CCC(C(=O)NC(c3ccccc3)c3ccccc3)N2C1=O
Reply: 67.3

Ask: Which viability, T/C is reported for this compound? C=C(F)C(=O)N1CCN(c2nc(OCC3CCCN3C)nc3c2CCN(c2cccc4cccc(Cl)c24)C3)CC1CC#N (stereo not given) + Cc1c(S(C)(=O)=O)c(-c2cc(F)cc(N3CCN(c4ccc(NS(=O)(=O)c5ccc(NC(CCN6CCC(C(=O)OCCCP(=O)(O)O)CC6)CSc6ccccc6)c(S(=O)(=O)C(F)(F)F)c5)cc4)CC3)c2)c(-c2ccc(Cl)cc2)n1C(C)C
Reply: 0.18

----------
Hi there, I'd appreciate the recorded viability, T/C for every entry that follows.
# Tested on: 126254-015-R-J1-PDC complex spheroid growth, % test/control
# assayOverview: Anticancer human tumor 126254-015-R-J1-PDC cell line growth inhibition [Asc];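 also: spheroids exposed to compound for seven days; 100% = DMSO vehicle control wells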
# conditionsUsed: second compound 1 µM; first compound 0.1 µM; hits give low values
Provide only the numeric value, understood in %.

Ask: Could you share what viability, T/C was measured for NC1CCC(NC2CC2c2ccccc2)CC1 (stereo not drawn) + CNC(C)C(=O)NC1CN(S(=O)(=O)c2cccc(S(=O)(=O)N3CCC4CCC(C(=O)NC(c5ccccc5)c5ccccc5)N4C(=O)C(NC(=O)C(C)NC)C3)c2)CCC2CCC(C(=O)NC(c3ccccc3)c3ccccc3)N2C1=O , tested on 126254-015-R-J1-PDC complex spheroid growth, % test/control?
Reply: 53

Ask: Item C#Cc1c(F)ccc2cc(O)cc(-c3ncc4c(N5CC6CCC(C5)N6)nc(OCC56CCCN5CC(F)C6)nc4c3F)c12 (stereo not drawn) + Cc1c(S(C)(=O)=O)c(-c2cc(F)cc(N3CCN(c4ccc(NS(=O)(=O)c5ccc(NC(CCN6CCC(C(=O)OCCCP(=O)(O)O)CC6)CSc6ccccc6)c(S(=O)(=O)C(F)(F)F)c5)cc4)CC3)c2)c(-c2ccc(Cl)cc2)n1C(C)C with 126254-015-R-J1-PDC complex spheroid growth, % test/control - viability, T/C?
Reply: 92.2

Ask: Under 126254-015-R-J1-PDC complex spheroid growth, % test/control: viability, T/C value of C=C(F)C(=O)N1CCN(c2nc(OCC3CCCN3C)nc3c2CCN(c2cccc4cccc(Cl)c24)C3)CC1CC#N (stereo not drawn) + CNC(C)C(=O)NC1CN(S(=O)(=O)c2cccc(S(=O)(=O)N3CCC4CCC(C(=O)NC(c5ccccc5)c5ccccc5)N4C(=O)C(NC(=O)C(C)NC)C3)c2)CCC2CCC(C(=O)NC(c3ccccc3)c3ccccc3)N2C1=O ?
Reply: 59.2

Data credit: PubChem BioAssay AID1963429
